tested.system: human ether-à-go-go-related gene (hERG) potassium channel (human, UniProt Q12809)
Sequence (Q12809 whole entry, looked up): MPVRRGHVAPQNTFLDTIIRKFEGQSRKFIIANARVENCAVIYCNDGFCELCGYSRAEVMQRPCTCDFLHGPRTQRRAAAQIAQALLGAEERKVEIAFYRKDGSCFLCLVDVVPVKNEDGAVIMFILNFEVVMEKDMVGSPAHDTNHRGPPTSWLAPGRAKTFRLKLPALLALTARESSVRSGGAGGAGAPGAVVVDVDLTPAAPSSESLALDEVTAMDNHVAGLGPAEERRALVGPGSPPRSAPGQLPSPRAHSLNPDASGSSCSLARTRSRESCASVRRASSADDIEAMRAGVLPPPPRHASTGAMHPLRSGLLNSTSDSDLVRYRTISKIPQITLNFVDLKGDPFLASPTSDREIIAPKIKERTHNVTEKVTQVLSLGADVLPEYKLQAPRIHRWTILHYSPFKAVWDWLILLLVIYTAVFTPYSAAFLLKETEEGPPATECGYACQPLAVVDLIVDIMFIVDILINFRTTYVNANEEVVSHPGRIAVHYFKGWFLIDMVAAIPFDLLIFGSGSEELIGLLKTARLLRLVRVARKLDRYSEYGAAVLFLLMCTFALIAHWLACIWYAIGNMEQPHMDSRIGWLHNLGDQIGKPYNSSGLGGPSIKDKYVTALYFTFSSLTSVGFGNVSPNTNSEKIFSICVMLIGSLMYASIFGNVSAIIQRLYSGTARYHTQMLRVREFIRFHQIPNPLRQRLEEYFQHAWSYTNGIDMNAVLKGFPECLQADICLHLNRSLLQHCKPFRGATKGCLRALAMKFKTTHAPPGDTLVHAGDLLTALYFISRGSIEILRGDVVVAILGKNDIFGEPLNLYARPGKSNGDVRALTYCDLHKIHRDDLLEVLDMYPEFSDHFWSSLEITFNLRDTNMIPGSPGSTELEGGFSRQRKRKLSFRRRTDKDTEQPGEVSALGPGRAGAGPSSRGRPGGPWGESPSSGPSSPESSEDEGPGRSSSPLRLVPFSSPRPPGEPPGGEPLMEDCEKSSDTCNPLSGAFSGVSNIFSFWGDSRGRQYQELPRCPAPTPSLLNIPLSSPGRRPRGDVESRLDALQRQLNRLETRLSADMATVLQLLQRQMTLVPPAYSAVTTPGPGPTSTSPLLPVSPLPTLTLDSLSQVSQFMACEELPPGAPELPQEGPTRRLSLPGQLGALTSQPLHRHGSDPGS
assay.explanation: primary screen, population patch clamp on CHO cells stably expressing hERG; higher = less effect of the substance
Hit rate of the full screen: of about 310,000 compounds, about 14,000 (4.5%) showed an effect of 50% or more. The effect is printed as a negative number. This excerpt belongs to a sample that is enriched for strong results.
Item-by-item account of hERG current change (%, negative = inhibition) at 10uM
quantity: hERG current change (%, negative = inhibition) at 10uM (%)

compound: CCOC(=O)C1=C(COC(=O)c2cccnc2Cl)NC(=O)NC1C (stereo not drawn)
data.value: 6.19
--
compound: CCOC(=O)C1=C(COC(=O)c2ccc(C)s2)NC(=O)NC1C (stereo not drawn)
data.value: -5.32
--
compound: COc1ccc(CCC(=O)NCCOc2ccc(Cl)cc2)cc1
data.value: -7.98
--
compound: CN(C)/C=C/C(=O)c1ccc(C(F)(F)F)cc1F
data.value: 15.3
--
compound: Cc1ccc(SC(C)c2nc(-c3cccnc3)no2)cc1 (stereo not drawn)
data.value: -30.5
--
compound: CCc1ccccc1NC(=O)CCS(=O)(=O)c1ccc(OC)cc1
data.value: 7.48

====

Item-by-item account of hERG current change (%, negative = inhibition) at 10uM
tested.system: human ether-à-go-go-related gene (hERG) potassium channel (human, UniProt Q12809)
assay.explanation: primary screen, population patch clamp on CHO cells stably expressing hERG; higher = less effect of the substance
The campaign covered roughly 310,000 compounds. About 14,000 (4.5%) showed an effect of 50% or more. The effect is printed as a negative number. The entries come from a sample that favours strong results as a whole.
quantity: hERG current change (%, negative = inhibition) at 10uM (%)

compound: Cc1ccc(C(=O)N/C(=C\c2ccccc2)C(=O)NCCCn2ccnc2)cc1
tested.system: human ether-à-go-go-related gene (hERG) potassium channel (human, UniProt Q12809)
unit.of.measure: %
data.value: -84.8
//
compound: CCOC(=O)c1cnc(-n2nc(C)cc2C)nc1NC1CCCC1
tested.system: human ether-à-go-go-related gene (hERG) potassium channel (human, UniProt Q12809)
unit.of.measure: %
data.value: -26.2
//
compound: CC(C)(C)NC(=O)COC(=O)c1cc(S(=O)(=O)N2CCCCC2)ccc1N1CCOCC1
tested.system: human ether-à-go-go-related gene (hERG) potassium channel (human, UniProt Q12809);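 note: peak tail current of the secondary pulse compared with the same well before compound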
unit.of.measure: %
data.value: -6.23
//
compound: Cc1ccc(NC(=O)C2Cc3ccccc3C(=O)O2)cc1 (centres unmarked)
tested.system: human ether-à-go-go-related gene (hERG) potassium channel (human, UniProt Q12809);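 note: peak tail current of the secondary pulse compared with the same well before compound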
unit.of.measure: %
data.value: 13
//
compound: O=C(NCCCn1ccnc1)c1cc([N+](=O)[O-])cc([N+](=O)[O-])c1
tested.system: human ether-à-go-go-related gene (hERG) potassium channel (human, UniProt Q12809);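 note: peak tail current of the secondary pulse compared with the same well before compound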
unit.of.measure: %
data.value: -4.05

====

tested.system: human ether-à-go-go-related gene (hERG) potassium channel (human, UniProt Q12809);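 note: peak tail current of the secondary pulse compared with the same well before compound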
assay.explanation: primary screen, population patch clamp on CHO cells stably expressing hERG; higher = less effect of the substance
Screen size: about 310,000 compounds; about 14,000 (4.5%) showed an effect of 50% or more. Effects have a minus sign here. Many of the other results were omitted from the sample, so strong results are more common in it than they were.
quantity: hERG current change (%, negative = inhibition) at 10uM (%)

compound: COCCN(CC1CCCN(C2Cc3ccccc3C2)C1)C(=O)CCSC (stereo not shown)
unit.of.measure: %
data.value: -45.8
//
compound: CCCN(CC(=O)Nc1c(C)cccc1CC)C(=O)SCC
unit.of.measure: %
data.value: 10
//
compound: O=C(Nc1ncccc1O)c1ccc2c(c1)OCO2
unit.of.measure: %
data.value: 3.08
//
compound: COc1ccc(NC(=O)CN2CCN(CC(=O)Nc3ccccc3F)CC2)c(OC)c1
unit.of.measure: %
data.value: -63.5
//
compound: COc1ccc(C(=O)Nc2nc3c(s2)CCCC3)cc1S(=O)(=O)N1CCCc2ccccc21
unit.of.measure: %
data.value: -2.36
//
compound: Cc1nc2c3ccccc3nc(NNC(=O)CCC(=O)N3CCN(c4ccccc4F)CC3)n2n1
unit.of.measure: %
data.value: -40.3
//
compound: COc1ccccc1NC(=O)CN1CCN(CC(=O)Nc2ccccc2Cl)CC1
unit.of.measure: %
data.value: 2.56
//
compound: COCCN(CC1CCCN(C2Cc3ccccc3C2)C1)C(=O)CCC(C)=O (stereo not shown)
unit.of.measure: %
data.value: -6.4
//
compound: COCCn1c(-c2ccc(Cl)cc2Cl)nc2c(c(=O)c3ccccc3n2C)c1=O
unit.of.measure: %
data.value: -8.66
//
compound: OCCCc1cn(-c2ccccc2)c2ccccc12
unit.of.measure: %
data.value: 7.41

All values here come from paper PMC4336329.
